tested on: Fibroblast; experiment: Incucyte cell viability with human fibroblast; assay type: toxicity, cell-based; conditions: 24 h, 10 µM, compound concentration 10 uM, replicate number 2; note: unitless GR value; below 1 slowed growth and below 0 cell loss
recorded.metric: Growth Rate
Answer with the value's number alone.

Prompt: What measured Growth Rate goes with CC(C)(C)c1cnc(CSc2cnc(NC(=O)C3CCN(CC(=O)NCCOCCOCCOCCNc4cccc5c4C(=O)N(C4CCC(=O)NC4=O)C5=O)CC3)s2)o1 (configuration not stated) ?
Response: -0.12

Prompt: What measured Growth Rate goes with C=C[C@H]1C[N@@]2CC[C@H]1C[C@@H]2[C@@H](O)c1ccnc2ccc(OC)cc12 [QUINIDINE] ?
Response: 0.74

Prompt: What measured Growth Rate goes with CN1CCN(C(=O)Cc2ccc(N/C(=C3\C(=O)Nc4cc(Cl)ccc43)c3ccccc3)cc2)CC1 ?
Response: 0.28

Prompt: What measured Growth Rate goes with COCCNc1cc(NC(=O)N2CCCc3cc(CN4CCOCC4=O)c(C=O)nc32)ncc1C#N ?
Response: 0.95

Prompt: What measured Growth Rate goes with CCn1cnc2c(-c3ccc(F)c(-c4ccc(S(=O)(=O)CC)cc4OC)c3)cnnc21 [DARIGABAT] ?
Response: -0.48

Prompt: What measured Growth Rate goes with CCCNc1ccc2ncc(-c3ccncc3)n2n1 ?
Response: 0.09

Prompt: What measured Growth Rate goes with Cc1cc(CN(CC(=O)Nc2ccc(Cl)cc2Cl)C2CCCCC2)ccc1OCC(=O)O ?
Response: 0.87

Prompt: What measured Growth Rate goes with C=CC(=O)Nc1cc(-c2nn(C3CCC(N4CCN(C(C)=O)CC4)CC3)c3ncnc(N)c23)ccc1Oc1ccccc1 (configuration not stated) ?
Response: 0.67

Prompt: What measured Growth Rate goes with CCCn1cc(-c2cc(C3C(=O)N(CC)c4ccc(C(F)(F)F)cc4N(c4ccccc4)C3=O)cc(OC)c2O)cn1 (configuration not stated) ?
Response: 0.85

Prompt: What measured Growth Rate goes with C[C@H](CCC(=O)[O-])[C@H]1CC[C@H]2[C@@H]3[C@@H](O)C[C@@H]4C[C@H](O)CC[C@]4(C)[C@H]3CC[C@]12C.[Na+] ?
Response: 0.88

Prompt: What measured Growth Rate goes with CC1CNCCc2c1nc1ccnn1c2N1CC(C(=O)N2CCC(C)(C)C2)C1 (configuration not stated) ?
Response: 0.97

Prompt: What measured Growth Rate goes with CNC(=O)c1c(F)cccc1Nc1nc(Nc2cc3c(cc2OC)CCN3C(=O)CN(C)C)nc2[nH]ccc12 ?
Response: -0.6

Prompt: What measured Growth Rate goes with O=C(O)CCn1c2c(c3ccccc31)C[C@H](NS(=O)(=O)c1ccc(F)cc1)CC2 [RAMATROBAN] ?
Response: 0.74

Prompt: What measured Growth Rate goes with Cc1[nH]nc(C(F)(F)F)c1Cc1sc2c(c1C(=O)N1C[C@](C)(O)CO1)c(=O)n(C)c(=O)n2C(C)C [AZD3965] ?
Response: 0.8

Prompt: What measured Growth Rate goes with O=C(O)c1ccnc(N2CC(O)(c3ccc(OCc4c(-c5c(Cl)cccc5Cl)noc4C4CC4)cc3Cl)C2)c1 [CILOFEXOR] ?
Response: 0.8

Prompt: What measured Growth Rate goes with CC(C)N1CCN(Cc2cnc(-c3cc(-c4cccc5[nH]ccc45)cc4[nH]ncc34)o2)CC1 [NEMIRALISIB] ?
Response: 0.85

Prompt: What measured Growth Rate goes with CCS(=O)(=O)c1ccc(OC)c(Nc2ncc(-c3cccc(F)c3)o2)c1 [GW621970X] ?
Response: 0.99
